testedSystem: T1, human FXI (human coagulation Factor XI) (human, UniProt P03951 19-625)
T1 construct: Bought protein; Biotin-labeled form (HCXI-0150-B) was used in the hybridoma screen; also called FXI protein; FXI antigen
methodDescription: BLI (Octet Fortebio), antibody on AHC (anti-human-Fc) sensor, FXI in solution
readoutType: Kd

| binder | assayValue |
| --- | --- |
| humanized antibody 36G9.10-hz43 (antibody, human IgG1, kappa, N297A, V domains shown) VH: QVQLVQSGAEVKKPGASVKVSCKASGFNIKDTYIHWVRQAPGQGLEWIGRIDPANDNTNYAQKFQGRVTMTADTSINTAYMELSRLRSDDTAVYYCAQDYDGFAMDYWGQGTLVTVSS VL: DIQMTQSPSSLSASVGDRVTITCKASQDINKYITWFQQKPGKAPKLLIHYTSTLQPGVPSRFSGSGSGRDYTLTISSLQPEDFATYYCLQYDYLLTFGGGTKVEIKR | 0.0441 nM |
| humanized antibody 36G9.10-hz92 (antibody, human IgG1, kappa, N297A, V domains shown) VH: EVQLVQSGAEVKKPGATVKISCKASGFNIKDTYIHWVQQAPGKGLEWIGRIDPANDNTKYDPKFQGRVTITADTSTNTAYMELSSLRSEDTAVYYCAQDYDGFAMDYWGQGTLVTVSS VL: DIQMTQSPSSLSASVGDRVTITCKASQDINKYITWFQQKPGKAPKLLIHYTSTLQPGVPSRFSGSGSGTDFTLTISSLQPEDFATYYCLQYDYLLTFGGGTKVEIKR | 0.0152 nM |
| humanized antibody 36G9.10-hz74 (antibody, human IgG1, kappa, N297A, V domains shown) VH: EVQLVQSGAEVKKPGATVKISCKASGFNIKDTYIHWVQQAPGKGLEWMGRIDPANDNTIYAEKFQGRVTITADTSTNTAYMELSSLRSEDTAVYYCAQDYDGFAMDYWGQGTLVTVSS VL: DIQMTQSPSSLSASVGDRVTITCKASQDINKYITWYQQKPGKAPKLLIYYTSTLQPGVPSRFSGSGSGTDFTFTISSLQPEDIATYYCLQYDYLLTFGGGTKVEIKR | 0.00798 nM |
| humanized antibody 36G9.10-hz73 (antibody, human IgG1, kappa, N297A, V domains shown) VH: EVQLVQSGAEVKKPGATVKISCKASGFNIKDTYIHWVQQAPGKGLEWMGRIDPANDNTIYAEKFQGRVTITADTSTNTAYMELSSLRSEDTAVYYCAQDYDGFAMDYWGQGTLVTVSS VL: DIQMTQSPSSLSASVGDRVTITCKASQDINKYITWFQQKPGKAPKLLIHYTSTLQPGVPSRFSGSGSGRDYTLTISSLQPEDFATYYCLQYDYLLTFGGGTKVEIKR | 0.0103 nM |
| chimeric antibody 36G9.10-hz00 (antibody, human IgG1, kappa, N297A, V domains shown, Murine variable regions grafted to human IgG1 (N297A) and human kappa constant regions) VH: EVQLQQSGAELVKPGASVKLSCTASGFNIKDTYIHWVKQRPEQGLEWIGRIDPANDNTKYDPKFQGKATITADTSSNTAYLQLSSLTSEDSAVYYCAQDYDGFAMDYWGQGTSVTVSS VL: DIQMTQSPSSLSASLGGKVTITCKASQDINKYITWFQHKPGKGPRLLIHYTSTLQPGIPSRFSGSGSGRDYSFSISNLEPEDSATYYCLQYDYLLTFGGGTKLEIKR | 0.00366 nM |
